Each recorded value in this set is attributed to ChEMBL document CHEMBL1139279.

Species on record: Homo sapiens
Assay: Selectivity ratio of IC50 for human EP2 receptor to IC50 for human EP3 receptor
In this section, each of the compounds is paired with its reported Ratio IC50.

# Smiles, Ratio IC50
measured = [
    ("Cc1ccc(Sc2c[nH]c3cccc(OCC(=O)NS(=O)(=O)c4cc(Cl)c(Cl)s4)c23)c(C)c1", 1290),
    ("O=C(COc1cccc2[nH]cc(S(=O)(=O)c3ccc(Cl)c(Cl)c3)c12)NS(=O)(=O)c1cc(Cl)c(Cl)s1", 1450),
    ("O=C(COc1cccc2[nH]cc(Sc3ccc4ccccc4c3)c12)NS(=O)(=O)c1cccc(Cl)c1", 1090),
    ("O=C(COc1cccc2[nH]cc(Sc3nc4ccccc4s3)c12)NS(=O)(=O)c1cc(Cl)c(Cl)s1", 1660),
    ("O=C(COc1cccc2[nH]cc(Sc3ccc(Cl)cc3Cl)c12)NS(=O)(=O)c1cc(Cl)c(Cl)s1", 6230),
    ("O=C(COc1cccc2[nH]cc(Sc3ccc(Cl)c(Cl)c3)c12)NS(=O)(=O)c1cc(Cl)c(Cl)s1", 950),
]
